# Assay Target: VIM-1 (Pseudomonas aeruginosa, UniProt Q9XAY4)
# Construct: gene blaVIM; recombinant untagged, pET-24a(+) blaVIM-1 (pBPAQND2009), E. coli BL21(DE3); High Q and Superdex 75; zinc-supplemented buffers
# Test Method Notes: nitrocefin hydrolysis, spectrophotometric; Ki from IC50 by Cheng-Prusoff
# Format: biochemical
Attribute Measured: Ki (µM)
One number for each entry, in µM.

CCN(CC)c1ccc(CNn2cn[nH]c2=S)cc1 = 224

State recorded Ki for all listed compounds.
1. S=c1[nH]ncn1/N=C/c1c[nH]c2ccccc12
2. Sc1nncn1/N=C/c1ccc(Br)cc1
3. S=c1[nH]ncn1NCc1ccc2c(c1)OCO2

[95, 58, 120]

###

# Assay Target: KPC-2 (Klebsiella pneumoniae)
# Construct: recombinant, 'full-length KPC-2 enzyme'
# Sequence (Q9F663 25-293 limits assumed): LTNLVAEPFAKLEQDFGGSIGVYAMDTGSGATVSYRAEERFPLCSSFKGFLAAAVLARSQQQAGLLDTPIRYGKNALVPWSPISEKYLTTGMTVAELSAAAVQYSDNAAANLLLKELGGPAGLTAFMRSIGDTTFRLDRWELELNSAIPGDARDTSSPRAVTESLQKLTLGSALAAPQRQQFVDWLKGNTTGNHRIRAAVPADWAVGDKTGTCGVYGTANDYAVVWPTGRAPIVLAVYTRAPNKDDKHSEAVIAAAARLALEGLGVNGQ
# Test Method Notes: nitrocefin hydrolysis, spectrophotometric; Ki from IC50 by Cheng-Prusoff
# Format: biochemical
Attribute Measured: Ki
Kindly report the value followed by its unit.

Study these solved cases before continuing.
S=c1[nH]ncn1/N=C/c1c[nH]c2ccccc12 = 139 µM
S=c1[nH]ncn1NCc1ccc2c(c1)OCO2 = 138 µM
CCN(CC)c1ccc(CNn2cn[nH]c2=S)cc1 = 263 µM

Query molecule follows.
Give the measured Ki for Sc1nncn1/N=C/c1ccc(Br)cc1
158 µM

###

# Assay Target: IMP-1 (Pseudomonas aeruginosa)
# Construct: gene blaIMP-1; codon-optimised wild type gene, pETite N-His SUMO Kan, E. coli Lemo21(DE3); His-SUMO cleaved by SUMO protease; IMAC and Superose 12
# Sequence (Q79MP6 19-246 limits assumed): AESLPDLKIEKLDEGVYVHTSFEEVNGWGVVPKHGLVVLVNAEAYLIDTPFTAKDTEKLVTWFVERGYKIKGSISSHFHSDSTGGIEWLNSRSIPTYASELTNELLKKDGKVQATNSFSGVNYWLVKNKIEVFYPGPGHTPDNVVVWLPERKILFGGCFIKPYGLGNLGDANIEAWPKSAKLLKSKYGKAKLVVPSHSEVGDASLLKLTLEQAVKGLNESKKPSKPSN
# Test Method Notes: nitrocefin hydrolysis, spectrophotometric; Ki from IC50 by Cheng-Prusoff
# Format: biochemical
Attribute Measured: Ki (µM)
One number for each entry, in µM.

The following compounds have reported results that may help.
CCN(CC)c1ccc(CNn2cn[nH]c2=S)cc1 = 173
S=c1[nH]ncn1/N=C/c1c[nH]c2ccccc12 = 104
S=c1[nH]ncn1NCc1ccc2c(c1)OCO2 = 125

Please find the next compound below.
Using the record for Sc1nncn1/N=C/c1ccc(Br)cc1 , state its measured Ki.
285
